Source listed as PubChem BioAssay (NCI).

Tested on: MCF7 breast
method summary: NCI tumour cell line growth inhibition, 48 h
value type: TGI

Entry "O=c1c2ncn(CCCl)c2n(-c2ccccc2)c(=S)n1-c1ccccc1" ; assay system MCF7 breast; TGI recorded at > 100 µM

Entry CC(O)=NC(Cc1ccc2ccccc2c1)C(O)=NC(Cc1ccc(Cl)cc1)C(O)=NC(Cc1c[nH]c2ccccc12)C(O)=NC(CO)C(O)=NC(Cc1ccc(O)cc1)C(O)=NC(CCCN=C(N)N)C(O)=NC(CC(C)C)C(O)=NC(CCCN=C(N)N)C(=O)N1CCCC1C(O)=NC(C)C(=N)O (centres undefined) ; assay system MCF7 breast; TGI recorded at > 100 µM

Entry "C=C1CO[C@@H]2C[C@@H]1CC/C(C)=C/CC/C(C)=C/CC[C@@]2(C)O" ; assay system MCF7 breast; TGI recorded at > 63.6 µM

Entry CC1(C)C(=O)C2(C#N)CCC1C2 (centres undefined) ; assay system MCF7 breast; TGI recorded at > 100 µM

###

Test system: OVCAR-4 ovarian
method summary: NCI tumour cell line growth inhibition, 48 h
In this section, each of the compounds is paired with its reported TGI.

O=C(N/C(=C/c1ccc(Cl)cc1)c1nc2ccccc2c(=O)n1Nc1ccc([N+](=O)[O-])cc1[N+](=O)[O-])c1ccccc1; > 100 µM

Entry under test: "CN(NC(=O)c1cccs1)C1=NCCN1" . Its TGI was > 100 µM

Entry under test: COC(=O)C(=O)C1CCCCC(C2=NC3NN=C(N)N3C2=O)C1=O (stereo not drawn) . Its TGI was > 100 µM

###

Tested on: MDA-MB-231 breast
method summary: NCI tumour cell line growth inhibition, 48 h; in the data active means GI50 below about 0.43 µM; inactive means the rest
Output constraint: value belongs to YES for active, NO for inactive

Use these answered entries as a reference point.
O=[N+]([O-])c1ccc(-c2ccccc2)c([As](=O)(O)O)c1; NO
Brc1ccc(Br)nn1; NO
C=C=[CH][Sn]([c]1ccccc1)([c]1ccccc1)[c]1ccccc1; NO
CC(C)N(C[C@H]1O[C@@H](n2cnc3c(N)ncnc32)[C@H](O)[C@@H]1O)C1CC(CCc2nc3ccc(C(C)(C)C)cc3[nH]2)C1 (some centres undefined); NO
CSc1ccc(C2=NN(C(=O)c3ccc(N)cc3)C(c3ccc(F)cc3)C2)cc1 (centres undefined); NO
CNCCOc1nc2c3cnccc3cc(-c3cc(OC)c(OC)c(OC)c3)c2c2ccncc12; YES

q: Any idea what this test logged for "CCOc1cc(/C=N\NC(=O)N/N=C/c2ccc(O)c(OCC)c2)ccc1O" ?
a: NO

q: Any idea what this test logged for "COC(=O)Nc1nc2ccc(Sc3ccccc3)cc2[nH]1" ?
a: NO

q: Any idea what this test logged for Cc1cc2c(C(C)C)c(O)c(O)c(C=O)c2c(O)c1-c1c(C)cc2c(C(C)C)c(O)c(O)c(C=O)c2c1O (tested in a mixture with another compound) ?
a: NO

###

In this section, each of the compounds is paired with its reported TGI.
System: UACC-62 melanoma
method summary: NCI tumour cell line growth inhibition, 48 h

Below, each entry is followed by its recorded TGI result.
COc1cc(C2C(Cl)C(=O)N2NC(=O)Cc2ccccc2)ccc1O (stereo not given); > 100 µM
Cc1cc(=O)oc2c(CNC(C(=O)O)C(C)O)c(O)ccc12 (stereo not given); > 100 µM
CC(=O)O/C=C\OC1CCCC1; > 100 µM

Entry under test: "Cc1ccccc1NC(=O)C(=O)Cc1cnc2ccccc2n1" . Its TGI was > 100 µM

Entry under test: COC(=O)CCc1ccc2c(c1)CC1(C2)Cc2ccc3c(c2C1)CCC3 (stereo not given) . Its TGI was > 100 µM

###

In this section, each of the molecules is paired with its reported TGI.
Tested on: OVCAR-3 ovarian
method summary: NCI tumour cell line growth inhibition, 48 h

Below, each entry is followed by its recorded TGI result.
O=C1c2ccccc2C(=O)c2c(NC(=O)c3ccc4c5c(ncnc35)-c3ccccc3C4=O)cccc21; > 100 µM
O=C1CCC(=O)C(C(=O)CCC(=O)Nc2cccc(Cl)c2)C1 (configuration not stated); > 100 µM
c1cnc2c(c1)Nc1cnncc1S2; > 100 µM
COc1ccccc1OC(=O)/C=C/c1ccccc1; > 100 µM
O=C1C2Nc3ccccc3SC2C(=O)N1c1cccc([N+](=O)[O-])c1 (configuration not stated); > 100 µM
Cc1cc(=O)[nH]c(CNC(=O)Cc2ccccc2)n1; > 100 µM
CCCOCN1COCN=C1NC#N; > 100 µM
N#CC(c1ccccc1)N(CCc1ccccc1)C(=O)Oc1ccccc1 (configuration not stated); > 100 µM

Entry under test: "Nc1cccc2nsnc12" . Its TGI was > 100 µM

Entry under test: "CC(=O)N[C@@H](Cc1ccc(OP(=O)(O)O)cc1)C(=O)N[C@H]1CCC(=O)N2CCC[C@@H](C(=O)NCc3ccc(O)cc3)N2C1=O" . Its TGI was > 25 µM

Entry under test: "CS(=O)(=O)OCc1c(O)c2c(c(O)c1COS(C)(=O)=O)C(=O)C=CC2=O" . Its TGI was > 100 µM

Entry under test: "CNC(=O)OCCN1c2ccccc2Sc2ccccc21" . Its TGI was > 100 µM

Entry under test: COC(=O)C(=O)C1CCCCC(C2=NC3NN=C(N)N3C2=O)C1=O (configuration not stated) . Its TGI was > 100 µM

Entry under test: COc1cc(C2C(Cl)C(=O)N2NC(=O)Cc2ccccc2)ccc1O (configuration not stated) . Its TGI was > 100 µM

Entry under test: "CC(C)(C)C(=O)[CH-]C(=O)C(F)(F)C(F)(F)C(F)(F)F.CC(C)(C)C(=O)[CH-]C(=O)C(F)(F)C(F)(F)C(F)(F)F.[O-]CC1OC(O)C(O)C(O)C1O.[O-]CC1OC(O)C(O)C(O)C1O.[Ti+4]" . Its TGI was > 100 µM

Entry under test: "C[C@H](O)C(=O)SC[C@H](NC(=O)CC[C@@H](N)C(=O)O)C(=O)NCC(=O)O" . Its TGI was > 100 µM

Entry under test: NC(=O)CCC(NC(=O)C(F)(F)F)C(=O)O (configuration not stated) . Its TGI was > 100 µM

###

In this section, each of the molecules is paired with its reported TGI.
Test system: SF-268 CNS
method summary: NCI tumour cell line growth inhibition, 48 h

Entry under test: "CP(C)C.[Ag][I]" . Its TGI was > 100 µM

Entry under test: "NC(N)=N/N=C/c1ccc(O)c(C(=O)O)c1" . Its TGI was > 100 µM

Entry under test: OC1(c2ccc3ccccc3c2)c2ccc3ccccc3c2C2=NCCN21 (stereo not drawn) . Its TGI was > 100 µM

Entry under test: "CCOC(=O)c1c(N2CCOCC2)[nH]c(=O)c(C(c2ccc(Cl)c([N+](=O)[O-])c2)c2c(O)c(C(=O)OCC)c(N3CCOCC3)[nH]c2=O)c1O" . Its TGI was > 100 µM

###

In this section, each of the molecules is paired with its reported TGI.
System: NCI-H460 lung
method summary: NCI tumour cell line growth inhibition, 48 h

Below, each entry is followed by its recorded TGI result.
CC(C)c1cccc(C(C)C)c1NC1=CC(=O)C(=O)c2ccccc21; > 100 µM
CC1=NN(c2ccccc2)C(=O)C1=C1SCCCS1; > 100 µM

Entry under test: O=[N+]([O-])c1ccc(N2N=C(c3ccc4ccccc4c3O)CC2c2ccc(Cl)cc2Cl)c([N+](=O)[O-])c1 (stereo not drawn) . Its TGI was > 100 µM

###

In this section, each of the compounds is paired with its reported TGI.
Tested on: COLO 205 colon
method summary: NCI tumour cell line growth inhibition, 48 h

Below, each entry is followed by its recorded TGI result.
COC(=O)C(=O)C1CCCCC(C2=NC3NN=C(N)N3C2=O)C1=O (stereo not given); > 100 µM
CC(C)(C)C(=O)[CH-]C(=O)C(F)(F)C(F)(F)C(F)(F)F.CC(C)(C)C(=O)[CH-]C(=O)C(F)(F)C(F)(F)C(F)(F)F.[O-]CC1OC(O)C(O)C(O)C1O.[O-]CC1OC(O)C(O)C(O)C1O.[Ti+4]; > 100 µM
Cc1cc(C)c2c(c1)C(=O)C1(C2)Cc2c(ccc(C)c2C)C1=O (stereo not given); > 100 µM
CCOC(=O)c1c(N2CCOCC2)[nH]c(=O)c(C(c2ccc(Cl)c([N+](=O)[O-])c2)c2c(O)c(C(=O)OCC)c(N3CCOCC3)[nH]c2=O)c1O; > 100 µM
COc1cc(C2C(Cl)C(=O)N2NC(=O)Cc2ccccc2)ccc1O (stereo not given); > 100 µM

Entry under test: "CON" . Its TGI was > 100 µM

Entry under test: "Cc1ccccc1NC(=O)C(=O)Cc1cnc2ccccc2n1" . Its TGI was > 100 µM

Entry under test: "Cc1cc(C)c2[s+]snc2c1" . Its TGI was > 100 µM

Entry under test: "NC1=NS(=O)(=O)Nc2nc(-c3cccs3)[nH]c21" . Its TGI was > 100 µM
